From: patent US20250333496A1

Here, each record is paired with measured kon data.
target: T1, recombinant human HPC4-tagged IL-6 (human, UniProt P05231 30-212); test: SPR, HPC4-IL-6 captured on anti-HPC4 antibody, VHH injected, 25 C, 1:1 model
T1 construct: captured on an anti-HPC4 antibody in SPR; also called HPC4-human IL6
T1 sequence (P05231 other isoform, or with tags, fused parts or gaps limits assumed): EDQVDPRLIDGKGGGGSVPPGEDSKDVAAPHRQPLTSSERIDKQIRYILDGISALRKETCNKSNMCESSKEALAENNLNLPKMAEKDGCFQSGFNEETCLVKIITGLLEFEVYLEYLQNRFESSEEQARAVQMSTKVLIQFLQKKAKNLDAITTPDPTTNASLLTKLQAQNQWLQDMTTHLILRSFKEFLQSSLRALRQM
// units = M⁻¹ s⁻¹; emit number, no label

Recorded results for 2 binders are shown here.
Binder: Polypeptide_24 (VHH, VHH_1.3 with C-terminal His tag extension E1; also called [VHH_1.3]-E1) VHH: EVQLVESGGGLVQPGGSLQLSCTTSGRRFSEYAVGWFRQGPGKEREFVADIGEQAENTWYAHSVLGRFTISRDDAKNTVYLQMDSLKPEDTAVYYCAADKYGVGGNAQGYYDSWGQGTQVTVSS
Result units: M⁻¹ s⁻¹
Observed value: 4.12e+07

Binder: Polypeptide_34 (VHH, VHH_1.8 with C-terminal His tag extension E1; also called [VHH_1.8]-E1) VHH: EVQLVESGGGLVQAGGSLRLSCTASGGTFSEYAMAWFRQAPGKEREFVTDIGESGGTWYADSVKGRFTISRDNAKNTVYLQMNSLRPEDTAVYYCAADSYGVGGGAERYYDSWGQGTQVTVSS
Result units: M⁻¹ s⁻¹
Observed value: 2.88e+07

Need kon, item Polypeptide_29 (VHH, VHH_1.6 with C-terminal His tag extension E1; also called [VHH_1.6]-E1) VHH: EVQLVESGGGLVQPGGSLKLSCTTSGRRFSEYAVGWFRQAPGKEREFVADIGEQAENTWYAESVLGRFTISRDDAKNTVYLEMDGLKPEDTAVYYCAADKYGVGGNAQGYYDSWGQGTQVTVSS
2.23e+07

What value of measured kon is listed for Compound 12 (VHH, Chem. 24 (C16 diacid substituent) on Cys in position 4 and on Cys in position 6 of the extension (SEQ ID NO: 72), Polypeptide derivative; extension E2 at the C-terminus of the VHH; also called VHH_1.17-E2 with 2x Chem. 24) VHH: EVQLVESGGGLVQPGGSLQLSCAASGFTFSNYWMYWVRQAPGQGLEWVSGINTGGSTPDYADSVKGRFAISRDNAKNTLYLQMDSLRPEDTAVYYCAADTPRVFRLDHYSPLGQGTQVTVSS ?
7.36e+06
